Quick record of IC50 values for Serine/threonine-protein kinase PLK1 (Homo sapiens, UniProt P53350).

MOL SMILES	CENSOR SYMBOL	IC50 [µM]
CNC(=O)c1cccc2ccccc12	=	104
CNC(=O)c1cc(-c2cccc(OC)c2)n[nH]1	=	380
CNC(=O)c1ccc(SC)cc1	=	18.5
CNC(=O)CSc1ncnc2sc(C)cc12	=	475
CCCOc1ccc(C(=O)NC)cc1	=	29.5
CNC(=O)c1sc(C(F)(F)F)c(-c2ccccc2)c1N	>	600
CNC(=O)c1cc(OC)c2c(c1)OCCO2	=	300
CNC(=O)c1ccc2ncccc2c1	=	400
CNC(=O)c1ccc(NC)cc1	=	31.2
CNC(=O)c1cc(-c2ccccc2)c(C(F)(F)F)s1	=	500
CCOc1ccc(C(=O)NC)cc1	=	64.7
